Where these numbers come from: paper PMC9352680

Target: T1, PUF4 RNA-binding domain (Saccharomyces cerevisiae, UniProt P25339 537-888)
T1 sequence: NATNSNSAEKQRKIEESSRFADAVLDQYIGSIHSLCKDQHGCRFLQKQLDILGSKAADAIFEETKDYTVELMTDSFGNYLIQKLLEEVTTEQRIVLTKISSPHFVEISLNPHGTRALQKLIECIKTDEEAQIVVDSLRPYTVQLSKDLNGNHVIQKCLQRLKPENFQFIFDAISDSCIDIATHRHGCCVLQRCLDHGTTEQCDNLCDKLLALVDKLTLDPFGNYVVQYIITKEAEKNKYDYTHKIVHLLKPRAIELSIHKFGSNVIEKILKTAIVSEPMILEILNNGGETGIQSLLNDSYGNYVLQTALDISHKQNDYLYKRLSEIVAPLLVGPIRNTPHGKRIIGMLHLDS
Experiment: Mg; RNA-MaP; 20 mM Na-HEPES pH 7.4, 30 mM KOAc, 0.75 mM MgCl2, 0.1% Tween-20, 5% glycerol, 0.1 mg/mL BSA, 2 mM DTT; 25 C; 0.0125-409.6 nM protein
Settings: tags: N-His6-TEV cleaved; C-SNAP kept, Cy3B-labelled; label: tethered on chip by stalled RNA polymerase
measurement.kind: pKd
Notebook: values listed as pKd are -log10 of the concentration (mol/L).

// known answers, use as guide
# binder, pKd
measured = [
    ("UCUCUUUGUAACAUGUCUCUU (ssRNA) [Ic_S1_P4E.1_K4.1_C4.1_H4.1_A4.1_[T5A]_[A6C]_[T7A]_F4.1_[A9G]_T4.1]", 7.92),
    ("Id_ii_S2_P4E.3_K4.2_C4.2_[C-2A]_[T-1A]_H4.2_A4.1_F4.1_T4.2_[G10A]_[T11G] (ssRNA) RNA: UUUGAUUAAUAUGAUAUCGUUCUUUCUAAUAUAUAUUAAGUUCUUUCUCGAUAUCAUAUUAAUCUUU", 6.18),
]

Attention now shifts to the item below.
Quick one: pKd of Ib_S2_P4E.1_K4.1_C4.1_H4.1_A4.1_F4.1_[T8G]_[A9G]_T4.1 (ssRNA) RNA: UUUGAUUAAUAUGAUAUCGUUCUUUCUUGUAUAUGGUUCUUUCUCGAUAUCAUAUUAAUCUUU ?
7.23
